molecular target: PLpro (Severe acute respiratory syndrome coronavirus 2 (2019-nCoV) (SARS-CoV-2), UniProt P0DTD1); experiment: Assay for PLpro inhibitory activity (Ub-AMC fluorescence; single point inhibition test and IC50 determination); type: biochemical; details: read-out: inhibition of PLpro (1 μM), 1 μM test compound, 100 nM PLpro, 10 μM Ub-AMC, 37° C. 30 min
measured_parameter: inhibition at 1 µM (%)
Provide only the numeric value, understood in %.

Past entries and their recorded results:
Cc1ccc(N2CC(CN)C2)cc1C(=O)NC1(c2ccc(F)c3ncccc23)CC1    37.1
Cc1ccc(N2CC(N(C)C)C2)cc1C(=O)NC1(c2cccc3c(F)cccc23)CC1    97.6
Cc1ccc(N2CC(N(C)C)C2)cc1C(=O)NC1(c2cccc(-c3ccccc3)c2)CC1    5.8

Using known records, supply inhibition at 1 µM for `COc1ncc(C2(NC(=O)c3cc(N4CC(N(C)C)C4)ccc3C)CC2)c2ccccc12`
88.6

---

Examples of compounds with documented inhibition at 1 µM follow.
molecular target: PLpro (Severe acute respiratory syndrome coronavirus 2 (2019-nCoV) (SARS-CoV-2), UniProt P0DTD1); test: Assay for PLpro inhibitory activity (Ub-AMC fluorescence; single point inhibition test and IC50 determination); format: biochemical; details: read-out: inhibition of PLpro (1 μM), 1 μM test compound, 100 nM PLpro, 10 μM Ub-AMC, 37° C. 30 min
Give the value; after it, write the unit.

Past entries and their recorded results:
Cc1ccc(N2CC(N(C)C)C2)cc1C(=O)NC1(c2cccc3ccsc23)CC1 [Example C57]    92%
Cc1ccc(N2CC(N(C)C)C2)cc1C(=O)NC1(c2ccc(-c3ccccc3)cc2)CC1 [Example C22]    0%
Cc1ccc(N2CCCC(N(C)C)C2)cc1C(=O)NC1(c2ccc(F)c3ccccc23)CC1 (centres unmarked) [Example C31]    49.2%
Cc1ccc(N2CC(N(C)C)C2)cc1C(=O)NC1(c2ccc(F)c3[nH]c(=O)ccc23)CC1 [Example C60]    82%
Cc1ccc(N2CC3CCC(C2)N3)cc1C(=O)NC1(c2ccc(F)c3ccccc23)CC1 [Example C3]    96.2%

Using known records, supply inhibition at 1 µM for COc1cccc2c(C3(NC(=O)c4cc(N5CC(N(C)C)C5)ccc4C)CC3)ccnc12 [Example C30]
91.5%

Using known records, supply inhibition at 1 µM for Cc1ccc(N2CC(N(C)C)C2)cc1CNC1(c2ccc(F)c3ncccc23)CC1 [Example C85]
45.7%

Using known records, supply inhibition at 1 µM for Cc1ccc(N2CC(N(C)C)C2)cc1C(=O)NC1(c2cccc3c2OCCO3)CC1 [Example C77]
63%

---

biological target: PLpro (Severe acute respiratory syndrome coronavirus 2 (2019-nCoV) (SARS-CoV-2), UniProt P0DTD1); assay: Assay for PLpro inhibitory activity (Ub-AMC fluorescence; single point inhibition test and IC50 determination); format: biochemical; settings: read-out: inhibition of PLpro (1 μM), 1 μM test compound, 100 nM PLpro, 10 μM Ub-AMC, 37° C. 30 min
Label Not fulfilled if inhibition at 1 µM falls below 80%; label Fulfilled in every other case.

Item `Cc1ccc(N2CC3CCC(C2)N3)cc1C(=O)NC1(c2cccc(-c3cccs3)c2)CC1` with inhibition at 1 µM of 80% or above?
Not fulfilled

Item `Cc1ccc(N2CC(N(C)C)C2)cc1C(=O)NC1(c2cnc(O)c3ccccc23)CC1` with inhibition at 1 µM of 80% or above?
Fulfilled

Item `Cc1ccc(N2CC3CCC(C2)N3C)cc1C(=O)NC1(c2cccc(C(C)(C)C)c2)CC1` with inhibition at 1 µM of 80% or above?
Not fulfilled

Item `Cc1ccc(N2CC(N(C)C)C2)cc1C(=O)NC1(c2ccc(OC(F)F)c3ncccc23)CC1` with inhibition at 1 µM of 80% or above?
Fulfilled

Item `Cc1ccc(N2CCN(C(C)C)CC2)cc1C(=O)NC1(c2ccc(F)c3ccccc23)CC1` with inhibition at 1 µM of 80% or above?
Fulfilled

Item `Cc1ccc(N2CC(N(C)C)C2)cc1C(=O)NC1(c2ccc(Br)c3ccccc23)CC1` with inhibition at 1 µM of 80% or above?
Fulfilled

Item `[2H]C1([2H])C(N(C)C)C([2H])([2H])N1c1ccc(C)c(C(=O)NC2(c3ccc(F)c4ncccc34)CC2)c1` with inhibition at 1 µM of 80% or above?
Fulfilled

Item `Cc1ccc(N2CC(N(C)C)C2)cc1C(=O)NC1(c2ccc(F)c3ccccc23)CC1` with inhibition at 1 µM of 80% or above?
Fulfilled
